Property: IC50; scope: individual binders
- System Tested: T1, human ORL1 receptor (human, UniProt P41146 1-370)
- T1 construct: whole, on cells; also called hORL1 receptor; human nociceptin receptor
- T1 sequence (P41146 whole entry): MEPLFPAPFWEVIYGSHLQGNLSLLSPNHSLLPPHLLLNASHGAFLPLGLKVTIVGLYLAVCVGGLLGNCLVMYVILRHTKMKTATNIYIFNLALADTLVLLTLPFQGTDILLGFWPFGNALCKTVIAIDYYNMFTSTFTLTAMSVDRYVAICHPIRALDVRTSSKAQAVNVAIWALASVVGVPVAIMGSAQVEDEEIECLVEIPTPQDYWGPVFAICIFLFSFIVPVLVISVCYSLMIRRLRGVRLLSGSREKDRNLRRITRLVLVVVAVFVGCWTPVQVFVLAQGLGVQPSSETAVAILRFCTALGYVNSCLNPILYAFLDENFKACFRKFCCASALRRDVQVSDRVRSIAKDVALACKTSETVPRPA
- Experimental Details: binding to hORL1 receptor expressed in CHO cells, one experiment
// return numeric value only (unit: nM, not printed)

Sample records with IC50:
-- ask Please list IC50 recorded for the binder Ac-RYYRWKKKKKKK-NH2 (also: trifluoroacetate salt, Synthetic peptide conjugate; the primary product is the trifluoroacetate salt; also called Compound I) [Compound 1 Ac-Arg-Tyr-Tyr-Arg-Trp-Lys-Lys-Lys-Lys-Lys-Lys-Lys-NH2]
-- reply 0.32

-- ask Please list IC50 recorded for the binder H-NEEEEERYYRWKKKKKKK-NH2 [Compound 3 H-Asn-Glu-Glu-Glu-Glu-Glu-Arg-Tyr-Tyr-Arg-Trp-Lys-Lys-Lys-Lys-Lys-Lys-Lys-NH2]
-- reply 235

-- ask Please list IC50 recorded for the binder Ac-RYYRWK-NH2 (Unconjugated comparison hexapeptide; also called Ac-RYYRWK-NH2) [Compound CE1 Ac-Arg-Tyr-Tyr-Arg-Trp-Lys-NH2]
-- reply 0.31

***
-- ask Please list IC50 recorded for the binder Ac-RYYRWKAKKKKK-NH2 [Compound 11 Ac-Arg-Tyr-Tyr-Arg-Trp-Lys-Ala-Lys-Lys-Lys-Lys-Lys-NH2]
-- reply 0.27
